Assay: Rat PK study #4 (Compound A PO 0.2 and 1.0 mg/kg, propylene glycol formulation)
Type: in vivo, Lewis rats
Settings: male, Lewis, rat, plasma, po, 1 mg/kg, 1 mg/kg PO, propylene glycol-based formulation; individual animals

{"smilesNotation": "Cn1cc(-c2ccccc2)c(-c2cn(C)c(=O)c3[nH]c(-c4cnn(C(F)(F)F)c4)cc23)cc1=O", "measureUnit": "h", "half-life": 5.14}

----------
Assay: Rat PK study #3 (ABBV-744 IV 1 mg/kg and PO 5 mg/kg)
Format: in vivo, SD rats
Conditions: male, Sprague-Dawley, rat, plasma, iv, 1 mg/kg, SD rats, IV 1 mg/kg, DMSO/PEG-400/Milli-Q water formulation, individual animals

{"smilesNotation": "CCNC(=O)c1cc2c(-c3cc(C(C)(C)O)ccc3Oc3c(C)cc(F)cc3C)cn(C)c(=O)c2[nH]1", "measureUnit": "ng·h/mL", "AUC(0-inf)": 669}
